# pIC50 per record follows
target: Recombinant human Menin protein (2-610) / MLL polypeptide binding (Homo sapiens (Human)); test: Menin and MLL protein binding at a molecular level (fluorescence polarization method); conditions: inhibition of Menin / MLL polypeptide binding
Sequence (O00255 2-610): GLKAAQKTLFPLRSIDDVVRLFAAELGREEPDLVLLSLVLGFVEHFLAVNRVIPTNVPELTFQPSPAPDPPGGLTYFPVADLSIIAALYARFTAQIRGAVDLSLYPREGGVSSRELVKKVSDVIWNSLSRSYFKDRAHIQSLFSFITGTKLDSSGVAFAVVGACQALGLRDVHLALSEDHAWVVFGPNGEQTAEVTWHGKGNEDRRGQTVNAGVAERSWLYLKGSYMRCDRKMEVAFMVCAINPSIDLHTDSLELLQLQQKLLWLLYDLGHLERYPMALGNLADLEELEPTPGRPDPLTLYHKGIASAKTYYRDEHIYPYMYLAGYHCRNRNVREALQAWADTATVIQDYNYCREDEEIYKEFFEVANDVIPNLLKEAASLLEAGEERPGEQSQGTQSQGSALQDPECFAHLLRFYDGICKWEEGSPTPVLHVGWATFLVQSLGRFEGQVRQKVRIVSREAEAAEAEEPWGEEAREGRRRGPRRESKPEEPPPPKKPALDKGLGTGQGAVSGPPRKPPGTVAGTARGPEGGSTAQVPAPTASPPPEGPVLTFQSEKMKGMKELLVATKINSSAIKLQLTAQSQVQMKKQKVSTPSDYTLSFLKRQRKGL
Scale explanation: pIC50 corresponds to minus log10 of a concentration expressed in moles per litre.

Answered cases to consult:
{"compound": "CCN(C(=O)c1cc(F)ccc1Oc1nncnc1N1CC2(CCN(CC3CCN(c4ccc(C#N)nn4)CC3)CC2)C1)C(C)C [Compound 47]", "pIC50": 8.59}
{"compound": "CCN(C(=O)c1cc(F)ccc1Oc1nncnc1N1CC2(CCN(CC3CCN(C(=O)N(C)C)CC3)CC2)C1)C(C)C [Compound 24]", "pIC50": 7.64}
{"compound": "CCN(C(=O)c1cc(F)ccc1Oc1nncnc1N1CC2(CCN(CC3CCN(c4ccccn4)CC3)CC2)C1)C(C)C [Compound 57]", "pIC50": 8.52}
{"compound": "CCN(C(=O)c1cc(F)ccc1Oc1nncnc1N1CC2(CCN(Cc3ccc(NC(=O)CC#N)cc3C)CC2)C1)C(C)C [Compound 17]", "pIC50": 7.31}
{"compound": "CCN(C(=O)c1cc(F)ccc1Oc1nncnc1N1CC2(CCN(CC3CCN(c4ccn(C)n4)CC3)CC2)C1)C(C)C [Compound 79]", "pIC50": 7.24}
{"compound": "CCN(C(=O)c1cc(F)ccc1Oc1nncnc1N1CC2(CCN(CC3(N(C)C(=O)COC)CC3)CC2)C1)C(C)C [Compound 144]", "pIC50": 6.21}

Shifting focus to the compound that follows.
In: Consider the compound CCN(C(=O)c1cc(F)ccc1Oc1nncnc1N1CC2(CCN(CC3CCN(c4cccc(N)n4)CC3)CC2)C1)C(C)C [Compound 164] and give its recorded pIC50.
Out: 8.34

* * *

tested on: MV-4-11 cells (human acute myelogenous leukemia cell line carrying MLL-AF4 mutation); experiment: Cell proliferation assay, MV-4-11 (CellTiter-Glo); format: cell-based; details: Homo sapiens, MV4-11, 72 h, MV-4-11 cells, 3 days treatment, CellTiter-Glo; read-out: GI50
readoutLabel: GI50 (nM)
Just the number please, in nM, no unit attached.

{"compound": "CCN(C(=O)c1cc(F)ccc1Oc1nncnc1N1CC2(CCN(CC3CCN(C(=O)C4(C(F)(F)F)CC4)CC3)CC2)C1)C(C)C [Compound 2]", "readoutLabel": "GI50", "outputUnit": "nM", "reported": 39}
{"compound": "CCN(C(=O)c1cc(F)ccc1Oc1nncnc1N1CC2(CCN(Cc3ccc4c(cc(C#N)n4CCO)c3C)CC2)C1)C(C)C [Compound 154]", "readoutLabel": "GI50", "outputUnit": "nM", "reported": 2}

In: Consider the compound CCN(C(=O)c1cc(F)ccc1Oc1nncnc1N1CC2(CCN(CC3CCN(c4ccc(Cl)nn4)CC3)CC2)C1)C(C)C [Compound 46] and give its recorded GI50.
Out: 2

* * *

# GI50 per record follows
system: MV-4-11 cells (human acute myelogenous leukemia cell line carrying MLL-AF4 mutation); experiment: Cell proliferation assay, MV-4-11 (CellTiter-Glo); assay type: cell-based; conditions: Homo sapiens, MV4-11, 72 h, MV-4-11 cells, 3 days treatment, CellTiter-Glo; read-out: GI50
Just the number please, in nM, no unit attached.

{"chemicalSmiles": "C[C@H]1COCCN1C(=O)c1cc(F)ccc1Oc1nncnc1N1CC2(CCN(CC3CCN(c4ccccn4)CC3)CC2)C1", "reported": 60}
{"chemicalSmiles": "C[C@H]1CN(C)CCN1C(=O)c1cc(F)ccc1Oc1nncnc1N1CC2(CCN(CC3CCN(c4ccccn4)CC3)CC2)C1", "reported": 932}
{"chemicalSmiles": "CCN(C(=O)c1cc(F)ccc1Oc1nncnc1N1CC2(CCN(CC3CCN(c4cc(OC)cnn4)CC3)CC2)C1)C(C)C", "reported": 4}
{"chemicalSmiles": "CCN(C(=O)c1cc(F)ccc1Oc1nncnc1N1CC2(CCN(CC3CCN(C(=O)CNC4CC4)CC3)CC2)C1)C(C)C", "reported": 80}
{"chemicalSmiles": "CCN(C(=O)c1cc(F)ccc1Oc1nncnc1N1CC2(CCN(Cc3ccc(NS(C)(=O)=O)cc3C)CC2)C1)C(C)C", "reported": 56}

In: Consider the molecule CCN(C(=O)c1cc(F)ccc1Oc1nncnc1N1CC2(CCN(CC3CCN(C(=O)NCc4ccccc4)CC3)CC2)C1)C(C)C and give its recorded GI50.
Out: 24

In: Consider the molecule CCN(C(=O)c1cc(F)ccc1Oc1nncnc1N1CC2(CCN(CC3CCN(c4ccc(C)nn4)CC3)CC2)C1)C(C)C and give its recorded GI50.
Out: 2
